Data provenance: the supplement of paper PMC11865577

system: TO-N3 (biotin conjugate); experiment: pull-down binding Z-score (relative to library population); higher = stronger binding; settings: RNA library: Library-2
Readout Label: pull-down binding Z-score
Please state the value as a number alone, without comment.

Example entries begin here.
Biosequence: GUUGUCUUGAAAACUGGUGAUUUACAACCAUUAGAACAACCUACUAGUGAAGCUGUUGAAGCUCCAUUGGUUGGUACACCAGUUUGUAUUAAC
Readout Label: pull-down binding Z-score
Result Number: -0.376

Biosequence: UUUGCCGUUGCUUUUAAUGGUAAA [hsa-mir-548as]
Readout Label: pull-down binding Z-score
Result Number: -0.571

Biosequence: CUCGGGAGGCUGAG [hsa-mir-4419a]
Readout Label: pull-down binding Z-score
Result Number: -0.51

[ask] Item under review: GGCUGUAGUUGUGAUCAACUCCGCGAACCCAUGCUUCAGUCAGCUGAUGCACAAUCGUUUUUAAACGGGUUUGCGGUGUAAGUGCAGCC [DMSMaPseq_invitro_SARS-CoV-2_Motif_241] . Reported pull-down binding Z-score?
[reply] -0.133

[ask] Item under review: GCUAUAUGAUGC [IAV_invivo_PA_3_Motif_14+IAV_invivo_PA_3_Motif_14] . Reported pull-down binding Z-score?
[reply] -0.106

[ask] Item under review: `AACAGCAGACAACCCUUAAGGGUGUAGAAGCUGUU` . Reported pull-down binding Z-score?
[reply] -1.19

###

test system: TO-N3-2 (biotin conjugate); assay: pull-down binding Z-score (relative to library population); higher = stronger binding; details: RNA library: Library-2
Class boundaries, taken from values of pull-down binding Z-score, are as follows: band A = under -0.4, band B = from -0.4 up to 0.04, band C = 0.04 and over

Previously resolved entries follow.
Biosequence: UUUAGAAAAGAGAAUUCCAAA [hsa-mir-1252]
Qualitative Label: band A
--
Biosequence: GAAGAUUCUGAAAAUCACUAACU [hsa-mir-6878]
Qualitative Label: band B
--
Biosequence: AUGUGAUGUCACUGAGGAAAUCACAC [hsa-mir-216b]
Qualitative Label: band B
--
Biosequence: CCAAGUCUGACCACCUGAGGAAUGCCUGG [hsa-mir-1269a]
Qualitative Label: band C
--
Biosequence: CAAAACUCCGUACAUUGCUAUUUUGC [hsa-mir-3064]
Qualitative Label: band B
--
Biosequence: GGUACGUUAAUAGUUAAUAGCGUACUUCUUUUUCUUGCUUUCGUGGUAUUCUUGCUAGUUACACUAGCCAUCCUUACUGCGCUUCGAUUGUGUGCGUACU
Qualitative Label: band B

[ask] Into which bin does this sequence go? `GUGGCCCUGAUGGCUAC`
[reply] band B

###

system: TO-N3 (biotin conjugate); experiment: pull-down binding Z-score (relative to library population); higher = stronger binding; conditions: RNA library: Library-2
Readout Label: pull-down binding Z-score
Please state the value as a number alone, without comment.

[ask] Item under review: AUAGUUUAGAAUUACAUCAAGGGAGAUAACUGU [hsa-let-7a-2] . Reported pull-down binding Z-score?
[reply] -0.695

[ask] Item under review: GCUUGGAGCCUUGGUAGGGAAGCAAGCUGAGGAGAUAGGA [hsa-mir-7154] . Reported pull-down binding Z-score?
[reply] 1.57

[ask] Item under review: CAUGUUAAGUGUUGUCCUACAG [hsa-mir-5087] . Reported pull-down binding Z-score?
[reply] -0.368

[ask] Item under review: CCAUGGCAGAUUCCAACGGUACUAUUACCGUUGAAGAGCUUAAAAAGCUCCUUGAACAAUGGAACCUAGUAAUAGGUUUCCUAUUCCUUACAUGG [DMSMaPseq_invitro_SARS-CoV-2_Multi_81_ComplexLevel_1] . Reported pull-down binding Z-score?
[reply] -0.621

[ask] Item under review: UUCUUCCUGGAGUCGGGGAAAAG [hsa-mir-320e] . Reported pull-down binding Z-score?
[reply] 0.516

###

Listing of recorded pull-down binding Z-score by entry.
tested on: TO-3-N3 (biotin conjugate); assay: pull-down binding Z-score (relative to library population); higher = stronger binding; settings: RNA library: Library-2
Please state the value as a number alone, without comment.

Biosequence: GGCACAAAUGCAACACUGCAUUACCAUGCGGUUGUGCC [3-way model-1_rpoH]
Readout Label: pull-down binding Z-score
Result Number: -1.03
--
Biosequence: GUCAGGUGAUGGUGAUAAGGUCAAGGCCUG [hsa-mir-6853]
Readout Label: pull-down binding Z-score
Result Number: -0.0611

Here is another sequence to look at.
[ask] Item under review: CAGUGCACCUUCAUGAACCG [hsa-mir-938] . Reported pull-down binding Z-score?
[reply] 0.249

###

Listing of recorded pull-down binding Z-score by entry.
tested on: TO-3-N3 (biotin conjugate); assay: pull-down binding Z-score (relative to library population); higher = stronger binding; conditions: RNA library: Library-2

Biosequence: AUGCUGACGAUGGUCAUUUUGUCAGCAU [IAV_invivo_M1_M2_7_Motif_18+IAV_invivo_M1_M2_7_Motif_18]
pull-down binding Z-score: 0.0275
//
Biosequence: GAGCUUCGUGUACAUUAUCUAUUAGAAAAUGAAGUAC [hsa-mir-4724]
pull-down binding Z-score: 0.0277
//
Biosequence: GAGAGUGCUUUCUGAAUGCAAUGC [hsa-mir-501]
pull-down binding Z-score: -0.342
//
Biosequence: AGUUCCUGAUUAAGAAAUGGAAUU [hsa-mir-4699]
pull-down binding Z-score: -0.435
//
Biosequence: AUAGUUUGGGGCUCUGCCCUGCUAUGGGAUAACUAU [hsa-let-7a-3]
pull-down binding Z-score: -0.227

Here is another sequence to look at.
[ask] Item under review: GUGGAAUGCAAAGUCCCAC [hsa-mir-5698] . Reported pull-down binding Z-score?
[reply] -0.264

###

Listing of recorded pull-down binding Z-score by entry.
system: G-clamp-N3 (biotin conjugate); experiment: pull-down binding Z-score (relative to library population); higher = stronger binding; conditions: RNA library: Library-1 (pre-miRNA loops + repeats)
Please state the value as a number alone, without comment.

Example entries begin here.
Biosequence: UAAUAUGCACUAUAAAUAUAUUG [hsa-mir-450a-1]
pull-down binding Z-score: -0.725
--
Biosequence: ACAGGUAGUGGCCACAGUGAGAAAGCUGGCCUGUCCUUCUGC [hsa-mir-4314]
pull-down binding Z-score: -0.00957
--
Biosequence: GAGGCCUCUUGCCAUGGCCUCC [hsa-mir-7113]
pull-down binding Z-score: -1.1
--
Biosequence: UUGCUCUUUGGUGGAGAUA [hsa-mir-6074]
pull-down binding Z-score: 0.646

[ask] Item under review: CAGCAGCAGCAGCAGCAGCAGCAGCAGCAGCAGCAGCAGCAGCAGCAG [r(CAG)16] . Reported pull-down binding Z-score?
[reply] 1.2

###

Listing of recorded pull-down binding Z-score by entry.
test system: TO-3-N3-2 (biotin conjugate); experiment: pull-down binding Z-score (relative to library population); higher = stronger binding; conditions: RNA library: Library-2

Example entries begin here.
Biosequence: UUAGCCCAGCAAUGGGAGAGUGCUAA [hsa-mir-4636]
Tested On: TO-3-N3-2 (biotin conjugate)
pull-down binding Z-score: 0.32
--
Biosequence: CAAGAGGUGUGAGCCACACACACGCCUGGCCUCCUG [hsa-mir-5699]
Tested On: TO-3-N3-2 (biotin conjugate)
pull-down binding Z-score: 0.0475
--
Biosequence: GAAAACUUUGGAGAAAAAUUUUC [hsa-mir-4659a]
Tested On: TO-3-N3-2 (biotin conjugate)
pull-down binding Z-score: -0.258

[ask] Item under review: GGAGAAGAACCC [IAV_invivo_PB2_1_Motif_3+IAV_invivo_PB2_1_Motif_3] . Reported pull-down binding Z-score?
[reply] -0.0996

[ask] Item under review: GGGGGUGGCCGGGGCUGACCCU [hsa-mir-939] . Reported pull-down binding Z-score?
[reply] 1.8

[ask] Item under review: `GCAUUGAUUUAGAUGAGUGGAGUAUGGCUACAUACUACUUAUUUGAUGAGUCUGGUGAGUUUAAAUUGGCUUCACAUAUGU` . Reported pull-down binding Z-score?
[reply] -0.04

[ask] Item under review: UUUGCCAUUACUUUCAGUAGCAAA [hsa-mir-548c] . Reported pull-down binding Z-score?
[reply] -0.441

[ask] Item under review: ACGAUAUAGGUAUGUAUGUAUGUAUGUAUAAAAGCAGGGCAGUAUAUAUAUCGU [hsa-mir-4536-2] . Reported pull-down binding Z-score?
[reply] 0.723

[ask] Item under review: CAGGCAGUGGAGUUACUU [hsa-mir-600] . Reported pull-down binding Z-score?
[reply] 0.557

[ask] Item under review: GCGGGGGUGGGGGCCUCGCCCUGCUUGGGCCCUCCCUGAC [hsa-mir-6821] . Reported pull-down binding Z-score?
[reply] 1.75

###

Listing of recorded pull-down binding Z-score by entry.
tested on: TO-N3 (biotin conjugate); experiment: pull-down binding Z-score (relative to library population); higher = stronger binding; settings: RNA library: Library-2
Please state the value as a number alone, without comment.

Example entries begin here.
Biosequence: GAAUUCGAUUCAUCAAAGCGAGUC [hsa-mir-485]
Result Number: 0.0539
//
Biosequence: UCACUGCUGCUGGCGCCCUGA [hsa-mir-943]
Result Number: 0.432
//
Biosequence: GGAGACACUUUCACUAUAUAUAGUGGCUCC [hsa-mir-3156-2]
Result Number: -1.34
//
Biosequence: UGAUGCAGCCAUGCAACGUAAGUUGGAAAAGAUGGCUGAUCA
Result Number: -1.16
//
Biosequence: UUAAAUGUGUCAUUUAAAAAUUCAG [hsa-mir-1972-1_1972-2]
Result Number: -0.138

[ask] Item under review: ACUACUGUGCUCUGAGAAGCAGU [hsa-mir-301b] . Reported pull-down binding Z-score?
[reply] 0.643

[ask] Item under review: UGCUUCAGUUUCACUCCAAGCA [hsa-mir-4771-2_4771-1] . Reported pull-down binding Z-score?
[reply] -0.204

[ask] Item under review: UGAGUACAUUAUUUAUGAUUAAUCA [hsa-mir-376a-1] . Reported pull-down binding Z-score?
[reply] -0.978

[ask] Item under review: GGGCCGUGCACCCGUGGGCCCC [hsa-mir-1915] . Reported pull-down binding Z-score?
[reply] 0.335

[ask] Item under review: UCCCCAGAAGCUGAGGAUUAGGGGA [hsa-mir-6503] . Reported pull-down binding Z-score?
[reply] -0.0188

[ask] Item under review: `GUCACACCUUCGGGAACGUGGUUGAC` . Reported pull-down binding Z-score?
[reply] -0.0943
